# test_method_notes: Hemolytic activity against human erythrocytes at 25 uM after 40 mins relative to control
# Type: ADME, cell-based, Erythrocyte
# study_conditions: read-out: Activity
Where a SMILES comes first, the peptide text is derived from it. [ ]: non-standard residue; d: D form.
Recorded hemolysis at 40 min, 25 µM by entry

Answered cases to consult:
Prompt line: # query: hemolysis at 40 min, 25 µM of entry CC[C@H](C)[C@H](NC(=O)[C@H](CCCNC(=N)N)NC(=O)CNC(=O)[C@@H](CC(C)C)NC(=O)[C@H](Cc1ccccc1)NC(=O)[C@H](CCCCN)NC(=O)[C@H](CO)NC(=O)[C@H](Cc1ccccc1)NC(=O)[C@H](Cc1c[nH]c2ccccc12)NC(=O)[C@@H]1CCCN1C(=O)[C@@H](NC(=O)[C@@H](N)Cc1ccccc1)C(C)C)C(=O)N[C@@H](CC(C)C)C(N)=O (H-FVPWFSKF[dL]GRIL-NH2)
Response line: 7%

Prompt line: Which hemolysis at 40 min, 25 µM is listed for CC[C@H](C)C(NC(=O)[C@H](CCCNC(=N)N)NC(=O)[C@@H](CCCCN)NC(=O)[C@@H](CC(C)C)NC(=O)[C@H](Cc1ccccc1)NC(=O)[C@H](CCCCN)NC(=O)[C@H](CO)NC(=O)[C@H](Cc1ccccc1)NC(=O)[C@H](Cc1c[nH]c2ccccc12)NC(=O)[C@@H]1CCCN1C(=O)[C@@H](NC(=O)[C@@H](N)Cc1ccccc1)C(C)C)C(=O)N[C@@H](CC(C)C)C(N)=O (single isomer, unassigned) ?
Response line: 5%

Further cases:
Prompt line: Would you kindly share the measured hemolysis at 40 min, 25 µM for CC[C@H](C)[C@H](NC(=O)[C@H](CCCNC(=N)N)NC(=O)[C@H](Cc1c[nH]c2ccccc12)NC(=O)[C@@H](CC(C)C)NC(=O)[C@H](Cc1ccccc1)NC(=O)[C@H](CCCCN)NC(=O)[C@H](CO)NC(=O)[C@H](Cc1ccccc1)NC(=O)[C@H](Cc1c[nH]c2ccccc12)NC(=O)[C@@H]1CCCN1C(=O)[C@@H](NC(=O)[C@@H](N)Cc1ccccc1)C(C)C)C(=O)N[C@@H](CC(C)C)C(N)=O (H-FVPWFSKF[dL]WRIL-NH2) ?
Response line: 20%

Numbers sourced from ChEMBL document CHEMBL4130416.
